Entries annotated with measured koff
Biological target: T1, His-tagged human TIGIT (human, UniProt Q495A1 22-141)
T1 construct: SPR analyte; also called human TIGIT protein; not shown: His tag
T1 sequence: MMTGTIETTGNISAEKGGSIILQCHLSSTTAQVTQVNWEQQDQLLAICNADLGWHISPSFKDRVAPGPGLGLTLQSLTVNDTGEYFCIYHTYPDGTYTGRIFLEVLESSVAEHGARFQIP
Assay: SPR experiment 2, IgG from HEK293 supernatant captured
Field format: number, assumed s⁻¹, no unit text.

Consider the worked cases shown below.
humanized TIGIT-19 antibody 19VH4 + 19VL1.M7 (antibody, V domains shown, Full-length IgG, tested as HEK293 supernatant) VH: QVQLVQSGAEVKKPGASVKVSCKASGYAFSRYSMYWVRQAPGQGLEWIAFIDPYNGGSTYNQRFRGKATLTVDTSISTAYMELSRLRSDDTAVYYCARGGDYGWYLGVWGQGTLVTVSS VL: DIQMTQSPSSLSASVGDRVTITCRASQSIYSYLSWYQQKPGKAPKLLIYNAKSLPSGVPSRFSGSGSGTDFTLTISSLQPEDFATYYCQHHYGNPLTFGQGTKVEIK: 0.00017
humanized TIGIT-19 antibody 19VH4.M7 + 19VL1 (antibody, V domains shown, Full-length IgG, tested as HEK293 supernatant) VH: QVQLVQSGAEVKKPGASVKVSCKASGYTFTRYSMYWVRQAPGQGLEWIAFIDPYSGGSTYAQKFQGKATLTVDTSISTAYMELSRLRSDDTAVYYCARGGDYGWYLGVWGQGTLVTVSS VL: DIQMTQSPSSLSASVGDRVTITCRPSENIYTYLSWYQQKPGKAPKLLIYNAKTLPEGVPSRFSGSGSGTDFTLTISSLQPEDFATYYCQHHYGNPLTFGQGTKVEIK: 0.00032

Query binder follows.
Qu. Please report the recorded koff for humanized TIGIT-19 antibody 19VH4.M5 + 19VL1 (antibody, V domains shown, Full-length IgG, tested as HEK293 supernatant) VH: QVQLVQSGAEVKKPGASVKVSCKASGYAFSRYSMYWVRQAPGQGLEWIAFIDPYNGGSTYAQKFQGKATLTVDTSISTAYMELSRLRSDDTAVYYCARGGDYGWYLGVWGQGTLVTVSS VL: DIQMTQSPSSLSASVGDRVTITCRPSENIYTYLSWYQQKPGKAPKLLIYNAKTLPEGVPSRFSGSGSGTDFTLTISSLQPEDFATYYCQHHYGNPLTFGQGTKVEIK .
Ans. 0.0002
